Record form. Attribute: microsomal CLint. Fill in for each entry.
Experiment: Metabolic stability in human liver microsomes
Format: in vitro ADME
Conditions: human, liver microsomes
Hi! Could you send only the number? It should be in µL/min/mg, unit omitted.

Which value of microsomal CLint has been reported for CC(C)(C)/C(N)=N/C(=N/S(=O)(=O)c1ccc(C(F)(F)F)cc1)N1CCC(c2ccccc2)C(c2ccc(Cl)cc2)=N1 (stereo not shown) [Compound 10o] in the records?
26

State the recorded microsomal CLint for this entry: CC(C)C(N/C(=N/S(=O)(=O)c1ccc(C(F)(F)F)cc1)N1CCC(c2ccccc2)C(c2ccc(Cl)cc2)=N1)C(N)=O (single isomer, unassigned) [Compound 29a]
23

Form field: reported microsomal CLint of C/C(N)=N\C(=N\S(=O)(=O)c1ccc(C(F)(F)F)cc1)N1CCC(c2ccccc2)C(c2ccc(Cl)cc2)=N1 (stereo not shown) [Compound 10b]
2

Consider the molecule shown here: N/C(=N\C(=N\S(=O)(=O)c1ccc(C(F)(F)F)cc1)N1CCC(c2ccccc2)C(c2ccc(Cl)cc2)=N1)c1ccc(F)cc1F (stereo not shown) [Compound 10p] What is its recorded microsomal CLint?
6
